Ref: paper PMC11813147

tested on: angiotensin I-converting enzyme (ACE); assay: ACE inhibitory activity assay (fluorometric ACE activity assay kit); type: biochemical; conditions: peptide sample 1 mg/mL; replicate 2
property: ACE inhibitory activity

Given item RARVVPMY [P6, synthesized peptide identified from jellyfish fraction PUR20C] , the value recorded as its ACE inhibitory activity is 33.01%

Given item LMFMAVAFF [P12, synthesized peptide identified from jellyfish fraction PUR20C] , the value recorded as its ACE inhibitory activity is 43.60%

Given item RPLAKIIP [P8, synthesized peptide identified from jellyfish fraction PUR20C] , the value recorded as its ACE inhibitory activity is 26.14%

Given item DAENKENVEE [P18, synthesized peptide identified from jellyfish fraction PUR20C] , the value recorded as its ACE inhibitory activity is 23.85%

Given item KFNEVVYFL [P15, synthesized peptide identified from jellyfish fraction PUR20C] , the value recorded as its ACE inhibitory activity is 51.33%

Given item EIILIPMF [P3, synthesized peptide identified from jellyfish fraction PUR20C] , the value recorded as its ACE inhibitory activity is 33.87%

Given item NFTVLCDSLE [P10, synthesized peptide identified from jellyfish fraction PUR20C] , the value recorded as its ACE inhibitory activity is 9.82%

Given item LGAEGRSP [P13, synthesized peptide identified from jellyfish fraction PUR20C] , the value recorded as its ACE inhibitory activity is 18.41%

Given item MVVACVLPEA [P16, synthesized peptide identified from jellyfish fraction PUR20C] , the value recorded as its ACE inhibitory activity is 89.69%
